For each record, write down the corresponding melting point.

query: Give melting point for Cc1ccnc2c1C(=O)c1nccc(C)c1C2=O
result: 253 to 254 °C

query: Give melting point for Cc1cnc2c(c1)C(=O)c1ncc(C)cc1C2=O
result: > 300 °C

query: Give melting point for Cc1ccnc2c1C(=O)c1nccc(N(C)C)c1C2=O [(14a)]
result: 97 to 100 °C
